Test system: UACC-257 melanoma
Test: NCI tumour cell line growth inhibition, 48 h
QUANTITY MEASURED: GI50

Cc1cc(-c2nc(C(=O)Nc3cc4oc(N5CCOCC5)nc4nc3N3CC[C@@H](O)C3)co2)ccn1; 88.8 µM

For every item in the list below, what is its measured GI50?
1. OCc1cc2ccccc2c2c3c(ccc12)OCO3
2. Cc1ccnc2c1ccc1c(C)ccnc12
3. O=C(Nc1ccc(-n2ccc3c(NC(=O)c4ccccc4)nccc32)cc1)c1ccc(Cl)c(C(F)(F)F)c1
4. O=C(CCN1CCCCC1)C(=Cc1ccccc1)C(=O)CCN1CCCCC1

["28.1 µM", "0.508 µM", "6.73 µM", "87.4 µM"]

Entry CCCCCCCCCCCCCC(=O)OC(/C=C/C(C)C)C(O)C(O)C(OC)C(=O)NC1CCCCN(C)C1=O (stereo unspecified) — recorded GI50 = > 49 µM

* * *

System: SNB-75 CNS
Experiment: NCI tumour cell line growth inhibition, 48 h
QUANTITY MEASURED: log10 TGI (log10 of the value in µM)
Answers are given as log10 of TGI in µM.

Known results for molecules:
Fc1ccc(NC(=S)SCc2ccc3c(c2)OCO3)cc1F; 1.82
S=C1Nc2ccccc2SC1c1ccccc1 (configuration not stated); 1.85

Your task in this section: give log10 TGI for each listed record.
1. Cc1ccc2c(C)c3c(ccc4ccccc43)c[n+]2c1
2. COc1cccc(C(=O)O[C@H]2[C@@H]3[C@]4(OC(C)=O)CO[C@@H]4C[C@H](O)[C@@]3(C)C(=O)[C@H](OC(C)=O)C3=C(C)[C@@H](OC(=O)[C@H](O)[C@@H](NC(=O)OC(C)(C)C)c4ccco4)C[C@]2(O)C3(C)C)c1
3. CCN1/C(=C\c2cc[n+](CC)c3ccccc23)C=Cc2ccccc21

1.61
-1.62
-0.06

* * *

Tested on: PC-3 prostate
Assay: NCI tumour cell line growth inhibition, 48 h; in the data active = GI50 below about 0.43 µM; inactive = the rest
*1 amine or outer side, *2 acyl side, *3 side chain or, on linkers, in order; H or OH if unused. Where a SMILES comes first, the peptide text is derived from it. Bridges are numbered along the chain shown (N, C = ends). [ ]: non-standard residue; d: D form. The star is where a group is joined. Phe(3,5-F2) = N[C@@H](Cc1cc(F)cc(F)c1)C(=O)O; Pro(4R-Me) = C[C@H]1CN[C@H](C(=O)O)C1; aThr = C[C@H](O)[C@H](N)C(=O)O; Pip = O=C(O)[C@@H]1CCCCN1; X10 = Fc1cc(C2CC2)ccc1N*; CO = O=C([*:1])[*:2]
Give your call using only these classes: yes for active, no for inactive

COc1cc2c(cc1OCCCCN1CCN(CC(=O)Nc3ccc(Cl)cc3C(=O)c3ccccc3Cl)CC1)N=CC1CCCN1C2=O (configuration not stated); yes
C[C@@H]1C[C@H]2C(=O)O[C@@H](C)[C@H](NC(=O)[C@H](Cc3cc(F)cc(F)c3)NC(=O)Nc3ccc(C4CC4)cc3F)C(=O)N3CCC[C@H]3C(=O)N3CCCC[C@H]3C(=O)N[C@@H](C)C(=O)N2C1 ({X10-CO}-[Phe(3,5-F2)][aThr]P[Pip]A[Pro(4R-Me)]; ester 2-C); yes
COC([CH2][Hg][n]1cnc2c1c(=O)n(C)c(=O)n2C)CN1C(=O)c2ccccc2S1(=O)=O (configuration not stated); no

What call does the record list for COc1cc2c(c(OC)c1OC)-c1ccc(NNC(N)=S)c(=O)cc1[C@@H](NC(C)=O)CC2 ?
yes

Write down the call the test reported for this compound. Item: Nc1nc(-n2c(-c3ccccc3)nc3c(Br)cc(Br)cc3c2=O)nnc1-c1cccc(Cl)c1Cl
no

Dear all, I need the recorded test outcome for CCC(=O)[C@H](C)[C@@H](OC(=O)[C@H](C)CC)[C@H](C)[C@H]1OC(CC)=C(C)C(=O)[C@@H]1C , thank you.
no

Look up the recorded call for Cn1cc(C2=C(c3c4n(c5ccccc35)CCCCC4)C(=O)NC2=O)c2ccccc21 in this test.
no

These data points were gathered from PubChem BioAssay (NCI).
